Numbers sourced from PubChem BioAssay (NCI).

- System: SF-539 CNS
- Protocol Details: NCI-60 one-dose screen, 48 h
- Applied Conditions: 10 µM unless noted
About 83,000 compounds went through this panel and 20% of them were active in at least one assay; those are over-represented in the sample as a whole. The source made the active and inactive calls. The calls were made as follows: active = growth percent below 10; inactive = the rest.
Respond only with the outcome that fits, drawn from active, inactive

Recorded results for 5 molecules are shown here.
CCCCN1c2nc3ccccc3cc2Sc2cc3ccccc3nc21 = inactive
C/C=C(/C(=C/C)c1ccc(O)cc1)c1ccc(O)cc1 = active
COc1ccc(-c2c3c(N)nc(-c4ccncc4)nc3nc3c2c(C)nn3-c2ccccc2)cc1 = active
NC(=O)NC1(C(=O)O)CCCC1 = inactive
CCOC(=O)c1cnc2c(C)cc(C)cc2c1NCCCN(C)C = inactive

So what was the verdict on `COc1cccc(C=Nc2cc(C(C)C)c(O)cc2C)c1O` in this test?
inactive

So what was the verdict on `C[C@@H]1[C@H]2[C@H](C=C3[C@@H]4CC[C@H]5Cc6nc7c(nc6C[C@]5(C)[C@H]4C[C@@H](O)[C@@]32C)C[C@@H]2CC[C@H]3C4=C[C@@H]5O[C@@]6(CC[C@](C)(CO)O6)[C@@H](C)[C@@]5(O)[C@@]4(C)[C@H](O)C[C@@H]3[C@@]2(C)C7)O[C@]12CCC(C)(C)O2` in this test?
active

====

- Tested on: UACC-257 melanoma
- Protocol Details: NCI-60 one-dose screen, 48 h (100 = growth as untreated, 0 = no growth, -100 = all killed)
- Applied Conditions: 10 µM unless noted
Compounds without any hit were thinned out: in the full panel of roughly 83,000, 20% have a hit. Active and inactive are the calls of the source. Rule for the calls: active = growth percent below 10; inactive = the rest.
Property Measured: growth

COc1cc(/C=C2\CN(C)CC3=C2Nc2nc(SC)[nH]c(=O)c2C3c2cc(OC)c(OC)c(OC)c2)cc(OC)c1OC (stereo not given) = 53.9% (inactive)
FC(F)(F)c1ccc(-c2cnc(-c3nn[nH]n3)nc2NC2CCCCCC2)cc1 = 81.6% [50 µM] (inactive)
O=C1C=CC(=O)N1c1ccccc1N1C(=O)C=CC1=O = 115% (inactive)
O=C(O)CCC(=O)OC[C@@H](NC(=O)C(Cl)Cl)[C@H](O)c1ccc([N+](=O)[O-])cc1 = 104% (inactive)

Given the entry CC(=O)OC1Oc2cc(C)c(C)cc2-c2oc(=O)c(-c3ccccc3)cc21 (stereo not given) , report its measured growth.
74.5% (inactive)

Given the entry `Nc1nc2c(c(=O)[nH]1)C1(C(=O)Nc3ccccc31)c1c(nc(N)[nH]c1=O)N2` , report its measured growth.
110% (inactive)

Given the entry `CC[C@@H](C)/C=C(C)/C=C/C(O)=C1\C(=O)N[C@@H](Cc2ccc(OC(=O)[C@@](OC)(c3ccccc3)C(F)(F)F)cc2)C1=O` , report its measured growth.
94% (inactive)

Given the entry `C=CCNC(=O)/C(=C/c1cccc([N+](=O)[O-])c1)NC(=O)c1ccccc1` , report its measured growth.
7.53% (active)

Given the entry `COc1ccc2ncccc2c1Cc1c(OC)ccc2ncccc12` , report its measured growth.
68.2% (inactive)

Given the entry `O=c1sc2ncnc3ncn1c32` , report its measured growth.
88.1% (inactive)

Given the entry `Oc1c(Cl)cc(Oc2cc(Cl)c(O)c(CN3CCOCC3)c2)cc1CN1CCOCC1` , report its measured growth.
86.4% (inactive)

Given the entry `COc1cc(NC(=O)NCc2ccco2)ccc1-c1ccc(NC(=O)NCc2ccco2)cc1OC` , report its measured growth.
51% (inactive)

Given the entry CCN1CC2=C(Nc3nc(SC)[nH]c(=O)c3C2c2cc(OC)c(OC)c(OC)c2)/C(=C/c2cc(OC)c(OC)c(OC)c2)C1 (stereo not given) , report its measured growth.
97% (inactive)

Given the entry `Cc1csc(C#Cc2cncc(O)c2)n1` , report its measured growth.
98.5% (inactive)
